test system: ATP; experiment: switch fluorescence ratio, 500 uM ATP over buffer (Cy3 cluster intensity, sum of 5 cycles each) (fold (ratio)); higher = stronger signal-on switching upon ATP binding; sequences stand for … in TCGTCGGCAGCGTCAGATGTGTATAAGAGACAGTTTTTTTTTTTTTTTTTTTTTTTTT…TC; details: aptamer strand: ATP DNA aptamer (quencher-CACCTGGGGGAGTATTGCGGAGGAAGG + anchor), 100 nM annealed; ATP concentration: 500 uM;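 also: ATP exposure 15 min at 22 °C before imaging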
READOUT_KIND: switch fluorescence ratio

INSERT INTO results (item_sequence, target_under_test, readout_kind, recorded_value) VALUES
  ('TGCCCCGCCT', 'ATP', 'switch fluorescence ratio', 0.996),
  ('TTTTGGCCTT', 'ATP', 'switch fluorescence ratio', 0.997),
  ('AAAATGGTGT', 'ATP', 'switch fluorescence ratio', 1),
  ('ATGGTTCAAT', 'ATP', 'switch fluorescence ratio', 0.987),
  ('GGGTTTACGA', 'ATP', 'switch fluorescence ratio', 1.01),
  ('ATGCTGGGAC', 'ATP', 'switch fluorescence ratio', 1.01),
  ('GCTGGCGTCA', 'ATP', 'switch fluorescence ratio', 1),
  ('AGGAACATTA', 'ATP', 'switch fluorescence ratio', 1.01),
  ('GTCGTTGCTA', 'ATP', 'switch fluorescence ratio', 1.01),
  ('TGTCAGTTGG', 'ATP', 'switch fluorescence ratio', 1.02),
  ('GGTTATGCGG', 'ATP', 'switch fluorescence ratio', 1.01),
  ('AAAAGGTTAT', 'ATP', 'switch fluorescence ratio', 1.02),
  ('ATGAAAAGGT', 'ATP', 'switch fluorescence ratio', 0.976),
  ('GTAAGTTGGG', 'ATP', 'switch fluorescence ratio', 0.993),
  ('TTGATATGAC', 'ATP', 'switch fluorescence ratio', 1.01),
  ('TTCGTGGTGA', 'ATP', 'switch fluorescence ratio', 1.02),
  ('AAGTAAGGGC', 'ATP', 'switch fluorescence ratio', 1.02),
  ('AGGTTAAGCA', 'ATP', 'switch fluorescence ratio', 1.02),
  ('AGGGGATTAT', 'ATP', 'switch fluorescence ratio', 0.998),
  ('AATTTAGTGC', 'ATP', 'switch fluorescence ratio', 0.998),
  ('AGTTATTTTT', 'ATP', 'switch fluorescence ratio', 0.991),
  ('TTTGGCTTTG', 'ATP', 'switch fluorescence ratio', 1.02),
  ('TGAGAACCCG', 'ATP', 'switch fluorescence ratio', 1.02),
  ('TGATATCAAG', 'ATP', 'switch fluorescence ratio', 0.979),
  ('TCAGAAGGCT', 'ATP', 'switch fluorescence ratio', 0.999),
  ('CACTCCTGTG', 'ATP', 'switch fluorescence ratio', 1.01),
  ('GTAGGGAACC', 'ATP', 'switch fluorescence ratio', 0.976),
  ('AAAAGGGGGT', 'ATP', 'switch fluorescence ratio', 1.02),
  ('GGGAGGGCGT', 'ATP', 'switch fluorescence ratio', 0.981),
  ('GGGCTATCCG', 'ATP', 'switch fluorescence ratio', 0.983),
  ('CGTTGGTCGC', 'ATP', 'switch fluorescence ratio', 1.01),
  ('AAAATTCTGG', 'ATP', 'switch fluorescence ratio', 0.973),
  ('ATGAGTTGTG', 'ATP', 'switch fluorescence ratio', 1),
  ('ATGGTTAAAG', 'ATP', 'switch fluorescence ratio', 0.996),
  ('TGTTGTATGT', 'ATP', 'switch fluorescence ratio', 0.994),
  ('TGAATGATGG', 'ATP', 'switch fluorescence ratio', 1.02),
  ('GCACGGTACG', 'ATP', 'switch fluorescence ratio', 1),
  ('GGTGGGTGGG', 'ATP', 'switch fluorescence ratio', 0.999),
  ('GGGATAAGGA', 'ATP', 'switch fluorescence ratio', 0.99),
  ('AAGTCGACAC', 'ATP', 'switch fluorescence ratio', 1.02);
